tested on: CYP3A4/5; assay: Multi-concentration inhibitory activity curve of CYP3A4/5 enzymes (liver microsomes); format: in vitro ADME; conditions: pH 7.4, probe testosterone; testosterone as substrate; human liver microsomes
OBSERVATION TYPE: IC50 at 10 min

# lookup: IC50 at 10 min of COc1nc(C(=O)O)ccc1NCC#Cc1cc2c(N[C@@H]3CCN(C)C[C@@H]3F)cccn2c1CC(F)(F)F
> 50 µM

Now give it for [2H]C([2H])([2H])Oc1nc(C(=O)O)ccc1NCC#Cc1cc2c(N[C@@H]3CCN(C)C[C@@H]3F)cccn2c1CC(F)(F)F too.
> 50 µM

Lookup CNC(=O)c1ccc(NCC#Cc2cc3c(N[C@@H]4CCN(C)C[C@@H]4F)cccc3n2CC(F)(F)F)c(OC)c1
0.89 µM

----------
Tested on: NUGC-3 cells
Experiment: Anti-proliferation effect on NUGC-3 cells (Cell Counting Kit-8)
Assay type: cell-based
Settings: Homo sapiens, NUGC-3, 120 h, 5 days of treatment
Method: Cell line NUGC-3 (JCRB, JCRB0822) was cultured in RPMI 1640 medium (Invitrogen, 11875-085) supplemented with 10% (v/v) fetal bovine serum (BI, 04-002-1A), according to the standard instructions of the American Type Culture Collection. The cell line was authenticated by short tandem repeat profiling. […]
Give IC50 for every item shown.
Reply with just the number (in nM).

Which IC50 is reported for this molecule? CNC(=O)c1ccc(NCC#Cc2cc3c(N[C@@H]4CCN(C)C[C@@H]4F)cccc3n2CC(F)(F)F)c(OC)c1
780

Record: COc1nc(C(=O)O)ccc1NCC#Cc1cc2c(N[C@@H]3CCN(C)C[C@@H]3F)cccn2c1CC(F)(F)F
120

Try this molecule next: CNC(=O)c1ccc(NCC#Cc2cc3c(N[C@@H]4CCN(C)C[C@@H]4F)cccn3c2CC(F)(F)F)c(OC)c1
230

And COc1cc(S(C)(=O)=O)ccc1NCC#Cc1nc2c(N[C@@H]3CCN(C)C[C@@H]3F)cccn2c1CC(F)(F)F ?
360

Entry [2H]C([2H])([2H])Oc1nc(C(=O)O)ccc1NCC#Cc1cc2c(N[C@@H]3CCN(C)C[C@@H]3F)cccn2c1CC(F)(F)F please
100

----------
biological target: CYP2D6 (Homo sapiens); construct: Liver microsomes were thawed in a water bath at 37°C prior to use; from tissue; host or cells: liver microsomes; experiment: Inhibitory activity on CYP isoenzymes at a single concentration (liver microsomes); format: in vitro ADME; settings: pH 7.4, probe dextromethorphan, Final compound concentration: 10 µM, substrate Dextromethorphan, read-out: Inhibition rate (%) CYP2D6
Sequence (P10635 whole entry): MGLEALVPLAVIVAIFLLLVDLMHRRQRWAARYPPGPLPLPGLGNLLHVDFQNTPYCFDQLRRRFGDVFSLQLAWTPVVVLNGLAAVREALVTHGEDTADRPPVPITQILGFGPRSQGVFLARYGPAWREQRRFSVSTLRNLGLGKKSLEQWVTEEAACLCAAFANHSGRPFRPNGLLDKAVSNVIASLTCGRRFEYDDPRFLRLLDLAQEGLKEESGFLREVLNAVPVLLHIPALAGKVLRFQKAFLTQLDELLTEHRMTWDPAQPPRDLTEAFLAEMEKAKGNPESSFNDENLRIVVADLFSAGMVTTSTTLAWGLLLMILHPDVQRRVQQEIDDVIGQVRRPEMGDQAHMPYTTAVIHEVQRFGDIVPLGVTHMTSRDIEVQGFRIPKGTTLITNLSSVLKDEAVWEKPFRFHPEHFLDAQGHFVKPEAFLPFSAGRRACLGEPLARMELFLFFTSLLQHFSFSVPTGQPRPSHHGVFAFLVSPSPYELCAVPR
OBSERVATION TYPE: inhibition at 10 min, 10 µM (%)
Report the value in % with no unit label.

API: value(readout=inhibition at 10 min, 10 µM, system=CYP2D6 (Homo sapiens)) for record CNC(=O)c1ccc(NCC#Cc2cc3c(N[C@@H]4CCN(C)C[C@@H]4F)cccn3c2CC(F)(F)F)c(OC)c1 [Cpd-C]
9.5

Can you handle [2H]C([2H])([2H])Oc1nc(C(=O)O)ccc1NCC#Cc1cc2c(N[C@@H]3CCN(C)C[C@@H]3F)cccn2c1CC(F)(F)F [Cpd-1] next?
2.6

COc1nc(C(=O)O)ccc1NCC#Cc1cc2c(N[C@@H]3CCN(C)C[C@@H]3F)cccn2c1CC(F)(F)F [Cpd-2] ?
0.73

Check CNC(=O)c1ccc(NCC#Cc2cc3c(N[C@@H]4CCN(C)C[C@@H]4F)cccc3n2CC(F)(F)F)c(OC)c1 [Cpd-A] too.
5.5

Also need COc1cc(S(C)(=O)=O)ccc1NCC#Cc1nc2c(N[C@@H]3CCN(C)C[C@@H]3F)cccn2c1CC(F)(F)F [Cpd-B] , thanks.
3.6

----------
Kindly supply the reported inhibition at 10 min, 10 µM values for the records listed here.
biological target: CYP2C9 (Homo sapiens); construct: Liver microsomes were thawed in a water bath at 37°C prior to use; from tissue; host or cells: liver microsomes; experiment: Inhibitory activity on CYP isoenzymes at a single concentration (liver microsomes); format: in vitro ADME; settings: pH 7.4, probe diclofenac, Final compound concentration: 10 µM, substrate Diclofenac, read-out: Inhibition rate (%) CYP2C9
Sequence (P11712 whole entry): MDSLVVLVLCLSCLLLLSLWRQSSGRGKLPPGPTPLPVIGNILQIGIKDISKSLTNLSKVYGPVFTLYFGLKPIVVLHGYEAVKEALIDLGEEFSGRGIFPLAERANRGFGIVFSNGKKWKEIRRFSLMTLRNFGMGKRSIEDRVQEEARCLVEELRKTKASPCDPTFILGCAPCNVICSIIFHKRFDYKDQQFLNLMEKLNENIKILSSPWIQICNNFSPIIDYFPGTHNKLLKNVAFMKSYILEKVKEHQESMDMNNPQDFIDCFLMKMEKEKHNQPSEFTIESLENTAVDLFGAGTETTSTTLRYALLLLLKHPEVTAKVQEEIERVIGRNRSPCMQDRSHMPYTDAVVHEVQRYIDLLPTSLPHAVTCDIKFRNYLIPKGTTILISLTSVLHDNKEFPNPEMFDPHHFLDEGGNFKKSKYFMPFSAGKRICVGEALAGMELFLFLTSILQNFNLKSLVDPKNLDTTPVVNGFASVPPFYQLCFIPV
Kindly provide the numeric value in % only, without the unit symbol.

Tell me the measured inhibition at 10 min, 10 µM of COc1cc(S(C)(=O)=O)ccc1NCC#Cc1nc2c(N[C@@H]3CCN(C)C[C@@H]3F)cccn2c1CC(F)(F)F [Cpd-B] , please.
21

Now consider CNC(=O)c1ccc(NCC#Cc2cc3c(N[C@@H]4CCN(C)C[C@@H]4F)cccn3c2CC(F)(F)F)c(OC)c1 [Cpd-C] and answer again.
43

Okay, and CNC(=O)c1ccc(NCC#Cc2cc3c(N[C@@H]4CCN(C)C[C@@H]4F)cccc3n2CC(F)(F)F)c(OC)c1 [Cpd-A] ?
38

----------
target: p53 Y220C mutant (Homo sapiens, UniProt P04637, Y220C); construct: Recombinant His-tagged p53 Y220C (94-312) used for HTRF assays was expressed in E. coli; made in house; host or cells: E. coli; assay: HTRF assay: compounds promoting the binding of p53 Y220C mutant with DNA; assay type: biochemical; conditions: HTRF/FRET; His-tagged p53 Y220C (94-312) with biotin-labeled DNA; incubated overnight
Exercise: for every item that follows, state its recorded SC150.
Value expressed in nM; do not type the unit.

Suppose we examine the molecule [2H]C([2H])([2H])Oc1nc(C(=O)O)ccc1NCC#Cc1cc2c(N[C@@H]3CCN(C)C[C@@H]3F)cccn2c1CC(F)(F)F ; what SC150 value has been reported?
0.4

Please do the same for CNC(=O)c1ccc(NCC#Cc2cc3c(N[C@@H]4CCN(C)C[C@@H]4F)cccc3n2CC(F)(F)F)c(OC)c1 as well.
10

Follow-up entry: CNC(=O)c1ccc(NCC#Cc2cc3c(N[C@@H]4CCN(C)C[C@@H]4F)cccn3c2CC(F)(F)F)c(OC)c1
4.6

Then this molecule: COc1cc(S(C)(=O)=O)ccc1NCC#Cc1nc2c(N[C@@H]3CCN(C)C[C@@H]3F)cccn2c1CC(F)(F)F
15

Consider next the molecule COc1nc(C(=O)O)ccc1NCC#Cc1cc2c(N[C@@H]3CCN(C)C[C@@H]3F)cccn2c1CC(F)(F)F in the same way.
0.5

----------
biological target: CYP2C19 (Homo sapiens, UniProt P33261); construct: Liver microsomes were thawed in a water bath at 37°C prior to use; from tissue; host or cells: liver microsomes; assay: Inhibitory activity on CYP isoenzymes at a single concentration (liver microsomes); format: in vitro ADME; conditions: pH 7.4, probe mephenytoin, Final compound concentration: 10 µM, substrate Mephenytoin, read-out: Inhibition rate (%) CYP2C19
Sequence (P33261 whole entry): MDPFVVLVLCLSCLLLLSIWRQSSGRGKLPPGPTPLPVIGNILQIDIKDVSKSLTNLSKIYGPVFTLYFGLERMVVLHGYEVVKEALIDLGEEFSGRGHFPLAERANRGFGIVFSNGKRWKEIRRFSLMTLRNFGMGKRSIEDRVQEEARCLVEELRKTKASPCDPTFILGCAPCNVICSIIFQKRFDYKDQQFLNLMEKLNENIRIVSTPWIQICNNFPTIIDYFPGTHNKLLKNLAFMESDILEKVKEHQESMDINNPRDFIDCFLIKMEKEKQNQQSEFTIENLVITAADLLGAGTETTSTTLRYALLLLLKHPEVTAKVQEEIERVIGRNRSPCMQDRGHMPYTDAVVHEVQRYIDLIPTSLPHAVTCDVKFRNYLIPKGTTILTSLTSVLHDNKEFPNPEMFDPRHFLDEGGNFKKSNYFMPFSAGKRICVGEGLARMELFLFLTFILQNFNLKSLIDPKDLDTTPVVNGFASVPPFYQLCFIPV
Output Condition met for inhibition at 10 min, 10 µM not less than 40%; output Condition not met otherwise.

For this molecule, is measured inhibition at 10 min, 10 µM 40% or higher? COc1cc(S(C)(=O)=O)ccc1NCC#Cc1nc2c(N[C@@H]3CCN(C)C[C@@H]3F)cccn2c1CC(F)(F)F
Condition not met

Then this molecule: CNC(=O)c1ccc(NCC#Cc2cc3c(N[C@@H]4CCN(C)C[C@@H]4F)cccc3n2CC(F)(F)F)c(OC)c1
Condition met

Now the same for CNC(=O)c1ccc(NCC#Cc2cc3c(N[C@@H]4CCN(C)C[C@@H]4F)cccn3c2CC(F)(F)F)c(OC)c1
Condition met

Repeat for the following molecule: [2H]C([2H])([2H])Oc1nc(C(=O)O)ccc1NCC#Cc1cc2c(N[C@@H]3CCN(C)C[C@@H]3F)cccn2c1CC(F)(F)F
Condition not met

Entry to check: COc1nc(C(=O)O)ccc1NCC#Cc1cc2c(N[C@@H]3CCN(C)C[C@@H]3F)cccn2c1CC(F)(F)F
Condition not met

----------
Target: CYP1A2 (Homo sapiens, UniProt P05177)
Construct: from tissue; host or cells: liver microsomes
Sequence (P05177 1-516): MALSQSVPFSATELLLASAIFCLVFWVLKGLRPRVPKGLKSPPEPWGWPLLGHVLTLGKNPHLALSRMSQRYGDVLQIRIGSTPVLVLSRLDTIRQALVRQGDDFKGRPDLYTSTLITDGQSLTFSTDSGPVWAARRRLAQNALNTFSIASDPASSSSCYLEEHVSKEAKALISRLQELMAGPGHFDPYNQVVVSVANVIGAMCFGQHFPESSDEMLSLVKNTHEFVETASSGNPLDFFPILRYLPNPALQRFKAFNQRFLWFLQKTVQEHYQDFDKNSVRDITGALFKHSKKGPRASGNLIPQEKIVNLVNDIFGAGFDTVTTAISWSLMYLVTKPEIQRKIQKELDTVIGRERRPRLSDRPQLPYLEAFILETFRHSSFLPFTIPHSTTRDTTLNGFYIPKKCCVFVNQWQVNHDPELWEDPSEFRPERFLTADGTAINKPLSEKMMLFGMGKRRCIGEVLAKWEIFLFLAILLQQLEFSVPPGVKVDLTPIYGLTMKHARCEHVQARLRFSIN
Test: Inhibitory activity on CYP isoenzymes at a single concentration (liver microsomes)
Format: in vitro ADME
Conditions: pH 7.4, probe phenacetin, Final compound concentration: 10 µM, substrate Phenacetin, read-out: Inhibition rate (%) CYP1A2
Can you tell me inhibition at 10 min, 10 µM for the items I'm about to list?
Numbers only here, please. The scale is %.

Given CNC(=O)c1ccc(NCC#Cc2cc3c(N[C@@H]4CCN(C)C[C@@H]4F)cccc3n2CC(F)(F)F)c(OC)c1 , state its recorded inhibition at 10 min, 10 µM.
12

Another compound to check: [2H]C([2H])([2H])Oc1nc(C(=O)O)ccc1NCC#Cc1cc2c(N[C@@H]3CCN(C)C[C@@H]3F)cccn2c1CC(F)(F)F
6.3

What do we get for CNC(=O)c1ccc(NCC#Cc2cc3c(N[C@@H]4CCN(C)C[C@@H]4F)cccn3c2CC(F)(F)F)c(OC)c1 ?
18

Then what about the compound COc1cc(S(C)(=O)=O)ccc1NCC#Cc1nc2c(N[C@@H]3CCN(C)C[C@@H]3F)cccn2c1CC(F)(F)F ?
0.56

Lookup COc1nc(C(=O)O)ccc1NCC#Cc1cc2c(N[C@@H]3CCN(C)C[C@@H]3F)cccn2c1CC(F)(F)F
1.2
